Target: Human immunodeficiency virus type 1 integrase (Human immunodeficiency virus 1)
Test: In vitro inhibitory activity against HIV-1 integrase enzyme strand transfer process
Starred links: 1 amine or outer side, 2 acyl side, 3 side chain; linkers in the order of their positions; H or OH if unused. Positions of bridges follow the written chain, without caps; N, C: chain ends. Residues, ends and D or L forms follow the SMILES beside them. Chains are numbered I, II in the order given. CH2 = C([*:1])[*:2]
measuredQuantity: IC50 (µM)
Answers are plain numbers, in µM.

Request: Please report IC50 for the following compound: NCCCC[C@H](NC(=O)[C@H](CSCSC[C@H](NC(=O)[C@@H](N)Cc1c[nH]cn1)C(=O)N[C@@H](CCCCN)C(=O)N[C@@H](Cc1ccccc1)C(=O)N[C@@H](Cc1c[nH]c2ccccc12)C(=O)N[C@@H](Cc1c[nH]c2ccccc12)C(N)=O)NC(=O)[C@@H](N)Cc1c[nH]cn1)C(=O)N[C@@H](Cc1ccccc1)C(=O)N[C@@H](Cc1c[nH]c2ccccc12)C(=O)N[C@@H](Cc1c[nH]c2ccccc12)C(N)=O (I: H-HCKFWW-NH2 / II: H-HCKFWW-NH2; linker I:2-II:2 via CH2)
Result: 6.5

* * *

Molecular target: Human immunodeficiency virus type 1 integrase (Human immunodeficiency virus 1, UniProt Q7ZJM1)
Sequence (Q7ZJM1 whole entry): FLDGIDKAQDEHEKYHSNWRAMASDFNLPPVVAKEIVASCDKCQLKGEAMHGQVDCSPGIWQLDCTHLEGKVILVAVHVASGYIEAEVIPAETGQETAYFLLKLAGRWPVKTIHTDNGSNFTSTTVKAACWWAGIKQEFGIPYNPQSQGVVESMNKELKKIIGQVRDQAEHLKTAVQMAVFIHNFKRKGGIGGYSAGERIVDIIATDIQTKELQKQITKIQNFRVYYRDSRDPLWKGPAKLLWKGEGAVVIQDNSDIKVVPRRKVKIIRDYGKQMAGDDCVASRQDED
Assay: In vitro inhibitory activity against HIV-1 integrase enzyme 3'-end processing
measuredQuantity: pIC50
Answers are plain numbers, as −log10 of the molar value.

Request: Please report pIC50 for the following substance: `H-HCKFWW-NH2`
Result: 3.99

Hello, the source for this data is ChEMBL document CHEMBL1136830, in case you need it.
